Sourced from paper PMC6644994

Biological target: MsCI4 (Magnetospirillum gryphiswaldense, UniProt A4TVL0, W36F/W59F)
Sequence (A4TVL0 entry or part of it W36F/W59F): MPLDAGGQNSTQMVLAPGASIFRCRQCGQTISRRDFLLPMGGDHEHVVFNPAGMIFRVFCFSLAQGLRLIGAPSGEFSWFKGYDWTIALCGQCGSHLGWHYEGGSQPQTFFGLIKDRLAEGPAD
Test: biochemical
Type: binding
Details: printed in figures and text, FRET assay; read-out: Experimental Ki values for MsCI4
Observation type: Ki
The reply should read as a number followed by its unit.

Request: Which Ki is reported for this compound? "CC(=O)NC(N)=O"
Result: 522 µM

###

Listed here: items and their measured Ki.
Biological target: MsCI4 (Magnetospirillum gryphiswaldense, UniProt A4TVL0, W36F/W59F)
Test: biochemical
Assay type: binding

Some entries whose results are on file:
{"Compound": "O=C1CCCC(=O)O1 [Glutaric Anhydride]", "Experimental value": "> 1000 µM"}
{"Compound": "C1CCNCC1", "Experimental value": "> 1000 µM"}
{"Compound": "O=c1[nH]cc([C@@H]2O[C@H](CO)[C@@H](O)[C@H]2O)c(=O)[nH]1", "Experimental value": "> 1000 µM"}

Request: Which Ki is reported for this compound? C[C@@H]1C[C@@H]([C@H](O)CC2CC(=O)NC(=O)C2)C(=O)[C@@H](C)C1 [Cycloheximide]
Result: > 1000 µM

Request: Another: "O=C1CNC(=O)N1"
Result: 43 µM

###

Target: MsCI4 (Magnetospirillum gryphiswaldense, UniProt A4TVL0, W36F/W59F)
Assay: biochemical
Format: binding
Conditions: FRET assay
Observation type: binding to MsCI4 in the FRET assay (in words)

{"Compound": "O=C1CC(=O)NC(=O)N1 [Barbiturate]", "Measured target": "MsCI4 (Magnetospirillum gryphiswaldense, UniProt A4TVL0, W36F/W59F)", "Experimental value": "abolished binding"}
{"Compound": "C[C@@H]1C[C@@H]([C@H](O)CC2CC(=O)NC(=O)C2)C(=O)[C@@H](C)C1 [Cycloheximide]", "Measured target": "MsCI4 (Magnetospirillum gryphiswaldense, UniProt A4TVL0, W36F/W59F)", "Experimental value": "abolished binding"}

###

Listed here: items and their measured pKi.
Molecular target: MsCI4 (Magnetospirillum gryphiswaldense, UniProt A4TVL0, W36F/W59F)
Test: biochemical
Assay type: binding
Scale for pKi: -log10 of concentration given in mol/L; no unit attached.

{"Molecule": "O=C1CNC(=S)N1 [2-Thiohydantoin]", "pKi": 4.89}
{"Molecule": "O=c1ccn([C@@H]2O[C@H](CO)[C@@H](O)[C@H]2O)c(=O)[nH]1 [Uridine]", "pKi": 4.89}
{"Molecule": "Cc1c[nH]c(=O)[nH]c1=O [Thymine, 5-Methylpyrimidine-2,4-dione]", "pKi": 3.32}

Request: Which pKi is reported for this molecule? CN1CC(=O)NC1=O [N-Methylhydantoin]
Result: 4.80

Request: Another: O=C1CCCN1 [γ-Butyrolactam, Pyrrolidin-2-one]
Result: 4.24

Request: Another: O=C1CCC(=O)N1 [Succinimide, Pyrrolidine-2,5-dione]
Result: 5.37

Request: Another: COc1ccc(C2CNC(=O)C2)cc1OCCCN1CCC(C(=O)c2ccc(F)cc2)CC1 (stereo not drawn) [Lidanserin]
Result: 4.60

Request: Another: O=C1CCNC(=O)N1 [Dihydrouracil, Hexahydropyrimidine-2,4-dione]
Result: 4.06

Request: Another: CC1CCC(=O)N1 (stereo not drawn) [5-Methylpyrrolidin-2-one]
Result: 4.72

###

Target: MsCI4 (Magnetospirillum gryphiswaldense, UniProt A4TVL0, W36F/W59F)
Experiment: biochemical
Type: binding
Listed here: items and their measured Ki.

{"Compound": "O=C1CCCCCN1", "Observation type": "Ki", "Experimental value": "> 1000 µM"}
{"Compound": "CCC1(C)NC(=O)NC1=O (stereo not drawn)", "Observation type": "Ki", "Experimental value": "> 1000 µM"}
{"Compound": "S=C1CCCN1", "Observation type": "Ki", "Experimental value": "> 1000 µM"}
{"Compound": "CC(=O)NCCCCC(N)C(=O)O (stereo not drawn) [N-ε-Acetyllysine, 2-azaniumyl-6-acetamidohexanoate]", "Observation type": "Ki", "Experimental value": "> 1000 µM"}
{"Compound": "O=C1CCCO1", "Observation type": "Ki", "Experimental value": "> 1000 µM"}

Request: Which Ki is reported for this compound? "CC1(C)OC(=O)NC1=O"
Result: > 1000 µM

Request: Another: CC(=O)NCCN [N-(2-Aminoethyl)acetamide]
Result: > 1000 µM

Request: Another: "CN1CC(=O)NC1=N"
Result: > 1000 µM

Request: Another: "O=c1ccn([C@H]2C[C@H](O)[C@@H](CO)O2)c(=O)[nH]1"
Result: 15 µM

Request: Another: "O=c1cc[nH]c(=O)[nH]1"
Result: 35 µM

Request: Another: "O=C1CSC(=O)N1"
Result: 137 µM

Request: Another: "Nc1cc[nH]c(=O)n1"
Result: > 1000 µM
